TESTED_SYSTEM: C-C chemokine receptor type 2 (Homo sapiens, UniProt P41597)
Sequence (P41597 whole entry): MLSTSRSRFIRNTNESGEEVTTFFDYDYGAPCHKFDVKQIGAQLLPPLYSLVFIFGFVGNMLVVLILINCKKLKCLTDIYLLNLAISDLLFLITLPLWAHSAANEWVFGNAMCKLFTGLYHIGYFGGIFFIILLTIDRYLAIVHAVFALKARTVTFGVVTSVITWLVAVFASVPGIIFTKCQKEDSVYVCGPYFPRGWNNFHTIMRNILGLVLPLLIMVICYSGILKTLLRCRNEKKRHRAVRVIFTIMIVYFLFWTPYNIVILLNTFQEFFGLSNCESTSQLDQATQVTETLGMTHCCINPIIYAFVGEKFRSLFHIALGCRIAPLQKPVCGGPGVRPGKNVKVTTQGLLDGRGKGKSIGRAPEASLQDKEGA
TEST_NAME: Displacement of [125I]-MCP1 from human CCR2 receptor in THP1 cells after 2 hrs by scintillation counting
Format: cell-based, THP-1
PROPERTY_NAME: IC50 (nM)

Some compounds with known IC50 results, for comparison:
NC(=O)Cc1ccc([C@H]2CC[C@@H](N3CC(NC(=O)CNc4n[nH]c5ccc(C(F)(F)F)cc45)C3)CC2)cc1; 12
CCOC(=O)[C@H]1CC[C@@H](N2CC(NC(=O)CNc3nn(C4CCCC4)c4ccc(C(F)(F)F)cc34)C2)CC1; 650

A: O=C(Cn1[nH]c2ccc(C(F)(F)F)cc2c1=O)NC1CN([C@H]2CC[C@@H](c3ccccc3)CC2)C1
B: Cn1nc(NCC(=O)NC2CN([C@H]3CC[C@@H](c4ncco4)CC3)C2)c2cc(C(F)(F)F)ccc21
// which entry has the larger IC50 value, A or B ? Select an item and report its label.
A
(A: 5400 nM, B: 480 nM)
